# test.name: self-splicing fitness, log relative to wild type (ln ratio); higher = more splicing; Tetrahymena group I intron in knt gene, E. coli kanamycin selection, DiMSum; sequences stand for … in CUCUCU…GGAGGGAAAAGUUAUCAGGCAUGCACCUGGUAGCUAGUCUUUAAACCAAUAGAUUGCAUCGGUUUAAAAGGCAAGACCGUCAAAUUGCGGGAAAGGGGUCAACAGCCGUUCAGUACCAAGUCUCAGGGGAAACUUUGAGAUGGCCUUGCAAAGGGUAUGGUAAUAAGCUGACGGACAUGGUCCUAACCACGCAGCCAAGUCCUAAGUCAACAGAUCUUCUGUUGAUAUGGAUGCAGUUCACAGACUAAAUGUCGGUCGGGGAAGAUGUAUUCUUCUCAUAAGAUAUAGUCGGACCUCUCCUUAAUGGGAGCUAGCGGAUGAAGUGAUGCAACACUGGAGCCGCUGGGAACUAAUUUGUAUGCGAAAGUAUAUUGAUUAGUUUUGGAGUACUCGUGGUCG;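 also: selection with 25 µg/mL kanamycin versus none on LB agar overnight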
# condition.details: 37 °C
Decide using self-splicing fitness (ln): a value greater than or equal to -2 is MET, a smaller one is NOT MET.

| residue.string | cat |
| --- | --- |
| AACAAGCAAUAUUACGCUGC | NOT MET |
| CGGGAGCAAUAUUACGCAAG | NOT MET |
| ACACAGCAAUAUUACGCCGC | MET |
| AGUGAGCAAUAUUACGCUUU | NOT MET |
| GAGCAGCAAUAUUACGCUUG | MET |
| AGCGAGCAAUAUUACGACGU | MET |
| UGCCAGCAAUAUUACGAAAG | MET |
